assay: polyglutamine aggregate formation blockers (AID 1604); settings: polyglutamine-induced protein aggregation inhibition assay; stronger effect = higher value; tested at 2.5 µM
# inhibition of aggregation >= 60% gives TRUE, anything below gives FALSE

> print(dat)
                                    molecule  discrete.label
 1  CC(NCCC(c1ccccc1)c1ccccc1)c1ccccc1 (centres undefined)           FALSE
 2  CCn1cc(C(=O)O)c(=O)c2cc(F)c(N3CCNCC3)nc21           FALSE
 3                        C[n+]1ccccc1/C=N/O            TRUE
 4                         CC1(C)OC(=O)NC1=O           FALSE
 5  Cc1c(N(C)CS(=O)(=O)O)c(=O)n(-c2ccccc2)n1C            TRUE
 6            Cn1c([N+](=O)[O-])cnc1COC(N)=O           FALSE
 7  CCOC(=O)[C@H](CCc1ccccc1)N[C@@H](C)C(=O)N1CCC[C@H]1C(=O)O            TRUE
 8                   Oc1c(Br)cc(Br)c2cccnc12            TRUE
 9            CN(Cc1cc(Br)cc(Br)c1N)C1CCCCC1            TRUE
10                              NCCCCCC(=O)O            TRUE
11                           O=c1cc(CO)occ1O           FALSE
12  CC(C)NCC(O)c1ccc2ccccc2c1 (centres undefined)            TRUE

---

# reported aggregation suppression score; entries follow
experiment: 75Q-TubH aggregate inhibition, S. cerevisiae, yeast (AID 1616); details: S. cerevisiae 75Q-TubH polyglutamine aggregation suppression; stronger effect = higher value
endpoint: aggregation suppression score

> print(dat)
                                smiles.data  result
1            O=C1NCC2(CCN(CCc3ccccc3)CC2)O1    1.64
2  CO[C@@H]1[C@@H](OC(N)=O)[C@@H](O)[C@H](Oc2ccc3c(O)c(NC(=O)c4ccc(O)c(CC=C(C)C)c4)c(=O)oc3c2C)OC1(C)C   0.623
3                 Nc1cc(-c2ccncc2)c[nH]c1=O    1.17
4                  Nc1nc(=S)c2[nH]cnc2[nH]1    1.86
5  CC(=O)Nc1ccc(S(=O)(=O)Nc2ccc([N+](=O)[O-])cc2)cc1    1.23

---

test: Wnt pathway potentiators raising nuclear beta-catenin – imaging, WNT3A-conditioned medium, mouse C2C12, NPC library, primary screen (AID 1117326); conditions: stimulation, at 2 µM, stronger effect = higher value; further: reference of the scale not given here
endpoint: nuclear beta-catenin stimulation

> print(dat)
                                 smiles.data                          endpoint  result
 1                   CCN(CC)C(=O)N1CCN(C)CC1  nuclear beta-catenin stimulation    0.2%
 2         Cc1ccc(C(=O)c2ccc(CC(=O)O)n2C)cc1  nuclear beta-catenin stimulation    3.5%
 3     CCN(CC)CCNC(=O)c1cc(S(C)(=O)=O)ccc1OC  nuclear beta-catenin stimulation    0.2%
 4  COc1cc(N)c(Cl)cc1C(=O)NC1CCN(Cc2ccccc2)CC1  nuclear beta-catenin stimulation    0.9%
 5  N[C@@H](CCC(=O)N[C@@H](CS)C(=O)NCC(=O)O)C(=O)O  nuclear beta-catenin stimulation      4%
 6         CCCCNc1c(C(=O)OCC)c(C)nc2c1cnn2CC  nuclear beta-catenin stimulation    1.7%
 7          Nc1nc2c(ncn2COC(CO)CO)c(=O)[nH]1  nuclear beta-catenin stimulation    1.2%
 8  Cc1nc2n(c(=O)c1CCN1CCC(c3noc4cc(F)ccc34)CC1)CCC[C@H]2O  nuclear beta-catenin stimulation   -0.1%
 9  NCCCC[C@H](N[C@@H](CCc1ccccc1)C(=O)O)C(=O)N1CCC[C@H]1C(=O)O  nuclear beta-catenin stimulation    0.9%
10    Clc1ccccc1C(c1ccccc1)(c1ccccc1)n1ccnc1  nuclear beta-catenin stimulation    1.7%
11  CO[C@@]12[C@H](COC(N)=O)C3=C(C(=O)C(C)=C(N)C3=O)N1C[C@@H]1N[C@@H]12  nuclear beta-catenin stimulation   11.6%

---

test: growth inhibition, single agents and combos, CRL2098, cell-based, BGB or cisplatin IC20 combos, synergistic combos for chromothripsis tumors (AID 1671454); details: CRL2098 osteosarcoma cells, drug combinations, measured here: combination with BGB at IC20, at 0.5 µM, stronger effect = higher value;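 further: cells exposed for 96 h before readout; 0% = vehicle DMSO and 100% = killing by high DMSO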
endpoint: inhibition (%)

> print(dat)
                                   compound  result
1  O=c1c(O)c(-c2ccc(O)c(O)c2)oc2cc(O)cc(O)c12   -37.5
2  Cc1nc2ccc(CN(C)c3ccc(C(=O)N[C@@H](CCC(=O)O)C(=O)O)s3)cc2c(=O)[nH]1    35.1
3                           O=C(O)P(=O)(O)O   -77.3
4          Cc1oncc1C(=O)Nc1ccc(C(F)(F)F)cc1   -10.4
5  CC(N)C12CC3CC(CC(C3)C1)C2 (centres undefined)   -8.22
6                       O=C(O)CCCCCCCC(=O)O   -57.7
7           Cc1ccnc2c1NC(=O)c1cccnc1N2C1CC1   -9.42
8  CN(C)c1ccc(C(=C2C=CC(=[N+](C)C)C=C2)c2ccc(N(C)C)cc2)cc1    79.9
9  C[C@H]1COc2c(C3(N)CC3)c(F)cc3c(=O)c(C(=O)O)cn1c23   -27.6

---

tested on: R275C/beta4; experiment: BK channel mutant inhibitors and activators – cell-based, U2OS BacMam, thallium flux, beta subunits, selectivity assay, profiling panel (AID 1259406); settings: U2OS BacMam BK variants, at 30 µM;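 further: initial slope of Thallos dye fluorescence rise after thallium is added; log ratio against the mean of 0.3% DMSO vehicle wells on the same plate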
# log fold change Tl+ flux >= 0.03 gives condition met, anything below gives condition not met

> print(dat)
                                    compound     discrete.label
 1  COC(=O)C1=C(C)NC(C)=C(C(=O)OCC(C)C)C1c1ccccc1[N+](=O)[O-] (stereo not given)      condition met
 2  CC1(C)O[C@@H]2C[C@H]3[C@@H]4C[C@H](F)C5=CC(=O)C=C[C@]5(C)[C@@]4(F)[C@@H](O)C[C@]3(C)[C@]2(C(=O)CO)O1      condition met
 3  COc1cc(C(=O)NS(=O)(=O)c2ccccc2C)ccc1Cc1cn(C)c2ccc(NC(=O)OC3CCCC3)cc12      condition met
 4  COc1ccc2nc(S(=O)Cc3ncc(C)c(OC)c3C)[nH]c2c1 (stereo not given)  condition not met
 5  COc1cc2nc(N3CCN(C(=O)C4CCCO4)CC3)nc(N)c2cc1OC (stereo not given)  condition not met
 6      CN(C/C=C/C#CC(C)(C)C)Cc1cccc2ccccc12  condition not met
 7  Cc1cccc(C)c1NC(=O)C(C)N (stereo not given)  condition not met
 8  CCOc1cc(CC(=O)N[C@@H](CC(C)C)c2ccccc2N2CCCCC2)ccc1C(=O)O      condition met
 9  COCc1c(C(C)C)nc(C(C)C)c(/C=C/[C@@H](O)C[C@@H](O)CC(=O)O)c1-c1ccc(F)cc1      condition met
10  CCOC(=O)O[C@]1(C(=O)OCCl)CC[C@H]2[C@@H]3CCC4=CC(=O)C=C[C@]4(C)[C@H]3[C@@H](O)C[C@@]21C  condition not met
11    OCCOCCN1CCN(C2=Nc3ccccc3Sc3ccccc32)CC1      condition met
12  CC(N)C12CC3CC(CC(C3)C1)C2 (stereo not given)      condition met
13  Cc1nc2ccc(CN(C)c3ccc(C(=O)N[C@@H](CCC(=O)O)C(=O)O)s3)cc2c(=O)[nH]1  condition not met
14  CC(C)(C)NC(=O)[C@H]1CC[C@H]2[C@@H]3CC[C@H]4NC(=O)C=C[C@]4(C)[C@H]3CC[C@]12C  condition not met
15  CC(C)c1nc(CN(C)C(=O)N[C@H](C(=O)N[C@@H](Cc2ccccc2)C[C@H](O)[C@H](Cc2ccccc2)NC(=O)OCc2cncs2)C(C)C)cs1  condition not met
16       CN(C)CC[C@@H](c1ccc(Cl)cc1)c1ccccn1      condition met
17     CNS(=O)(=O)Cc1ccc2[nH]cc(CCN(C)C)c2c1  condition not met
18             Nc1nnc(-c2cccc(Cl)c2Cl)c(N)n1  condition not met
